All figures here come from the PETadex activity labels (doi:10.1021/acscatal.2c02275).

Can you tell me Proxy for plastic degradation for the items I'm about to list?
substrate: gfPET; assay: Proxy for plastic degradation [Relative activity]; conditions: pH 8
Hi, when you answer, please include the unit after the number. Thanks!

Lab note: unnamed (protein) MANPYERGPDPTESSIEAVRGPFAVAQTTVSRLQADGFGGGTIYYPTDTSQGTFGAVAISPGATAGQESIAWLGPRIASQGFVVITIDTITRLDQPDSRGRQLQAALDHLRTNSVVRNRIDPNRMAVMGHSMGGGGALSAAANNTSLEAAIPLQGWHTRKNWSSVRTPTLVVGAQLDTIAPVSSHSEAFYNSLPSDLDKAYMELRGASHLVSNTPDTTTAKYSIAWLKRFVDDDLRYEQFLCPAPDDFAISEYRSTCPF gave Proxy for plastic degradation of 22%

Lab note: unnamed (protein) MANPYERGPDPTESSIEAVRGPFAVAQTTVSRLQADGFGGGTIYYPTDTSQGTFGAVAISPGFTAGQESIAWLGPRIASQGFVVITIDTITRLDQPDSRGRQLQAALDHLRTNSVVRNRIDPNRMAVMGHSMGGGGALSAAANNTSLEAAIPLQGHHTRKNWSSVRTPTLVVGAQLDTIAPVSSHSEAFYNSLPSDLDKAYMELRGASHLVSNTPDTTTAKYSIAWLKRFVDDDLRYEQFLCPAPDDFAISEYRSTCPF gave Proxy for plastic degradation of 1%
